Study the reported Ki values for Coagulation factor IX (Homo sapiens) given below; they originate from different publications.
Give your result in nM as a bare value.

Examples from the recorded data:
{"columns": ["MOLECULE", "Ki, nM"],
 "data": [
  ["N=C(N)c1ccc2[nH]cc(C(CC(=O)Nc3ccc(-n4cnc5ccccc54)cc3)Cc3ccccc3)c2c1 (centres undefined)", 250],
  ["Cc1ccc(O)c2c3c(nn12)CCC(C)(NC(=O)c1ccc(-n2cncn2)cc1Cl)C3 (centres undefined)", 156]
]}

Fill blank: measured Ki of the molecule Cc1cc2nc(C[C@@H](C)NC(=O)c3ccc(-n4cnnc4)cc3Cl)[nH]c2cc1C is ____.
35000

Fill in the blank: the reported Ki of CCNC(=O)[C@@H]1CCCCC1NC(=O)[C@@H](Cc1ccccc1)c1csc2ccc(C(=N)N)cc12 (some centres undefined) is ____.
430

Sample N=C(N)c1ccc2scc(C(Cc3ccccc3)C(=O)Nc3ccc(-n4ccc(C(F)(F)F)n4)cc3)c2c1 (centres undefined) — what was its Ki?
130

What Ki value was documented for this molecule, CCOC(=O)[C@@H]1CCCCC1NC(=O)[C@@H](Cc1ccccc1)c1csc2ccc(C(=N)N)cc12 (some centres undefined) ?
120
